test system: rodents; conditions: in vivo

| compound | effect on glucose metabolism |
| --- | --- |
| FC(F)OC(Cl)C(F)(F)F (stereo not shown) [isoflurane] | induced hypoglycaemia |
| FCOC(C(F)(F)F)C(F)(F)F [sevoflurane] | induced hypoglycaemia |
